- Tested on: SNB-78
- Protocol: NCI tumour cell line growth inhibition, 48 h
Calls of active or inactive are those of the source. Rule as the data show it: active = GI50 up to about 1.1 µM and inactive = higher.
Recorded GI50 for the following molecules

# Molecule, GI50
measured = [
    ("C/C(CC(=O)Nc1cc(C)ccc1C)=N\\NC(=O)c1ccncc1", "> 100 µM (inactive)"),
    ("C/C(=N\\NS(=O)(=O)c1c(C)cc(C)cc1C)c1ccc[n+]([O-])n1", "14.3 µM (inactive)"),
    ("O=c1oc2c(O)c(O)cc3c(=O)oc4c(O)c(O)cc1c4c23", "> 10 µM (inactive)"),
    ("C/C(=C1/N=C(c2cc([N+](=O)[O-])ccc2Cl)N(c2ccc(Br)cc2)C1=O)c1ccc(N(CCC#N)CCC#N)cc1C", "40.6 µM (inactive)"),
    ("O=C(O)CCSC(=O)Nc1ccccc1F", "> 100 µM (inactive)"),
    ("C/C=C/C=C\\C(=O)C1c2cccc(O)c2C(=O)c2c(O)cc(C)cc21 (stereo unspecified)", "1.65 µM (inactive)"),
    ("O=C1NC(=O)C(=O)C(c2nc3ccccc3s2)C1=O", "> 100 µM (inactive)"),
    ("O=C1Nc2cc(F)ccc2C1=O", "> 100 µM (inactive)"),
    ("O=P(NC12CC3CC(CC(C3)C1)C2)(N1CC1)N1CC1", "> 100 µM (inactive)"),
    ("CC1=C(C(=O)Nc2cc(=O)n(C)c(=O)n2C)C(c2cccc([N+](=O)[O-])c2)C(C(=O)Nc2cc(=O)n(C)c(=O)n2C)=C(C)N1", "> 100 µM (inactive)"),
    ("CCOC(=O)CSc1nnc(CSc2nc(-c3ccccc3)c(-c3ccccc3)[nH]2)n1-c1ccccc1", "27.9 µM (inactive)"),
    ("O=C1/C(=C/c2ccccc2)CNC/C1=C\\c1ccccc1", "10.4 µM (inactive)"),
    ("CCCCCCCCC1C(C)c2c([nH]c3ccccc23)C2C(=O)N(c3ccccc3)C(=O)C21 (stereo unspecified)", "9.62 µM (inactive)"),
    ("CCOC(=O)c1cnc2cc3cccccc3n2c1=O", "> 100 µM (inactive)"),
    ("S=P1(Sc2ccccc2)Oc2ccc3ccccc3c2-c2c(ccc3ccccc23)O1", "> 100 µM (inactive)"),
    ("Cc1ccc(NC(=O)C(=O)CC(=O)C2CCOC2=O)c(C)c1 (stereo unspecified)", "> 100 µM (inactive)"),
    ("COc1cc(/C=C2\\Cc3ccccc3C2=O)cc(OC)c1OC", "> 100 µM (inactive)"),
    ("CC(C)(C)NNc1c([N+](=O)[O-])cnn(-c2ccccc2)c1=O", "15.6 µM (inactive)"),
    ("[O-][S+]1Nc2c(Cl)cc(Cl)c(Cl)c2S1 (stereo unspecified)", "> 100 µM (inactive)"),
    ("O=c1[nH]c2cc([N+](=O)[O-])ccc2nc1/C(=N\\NO)C(O)c1ccc([N+](=O)[O-])cc1 (stereo unspecified)", "> 100 µM (inactive)"),
    ("CC(C)(C)[C@H]1CC[C@@](O)(c2ccccc2)CC1.CC(C)(C)[C@H]1CC[C@](O)(c2ccccc2)CC1", "21.8 µM (inactive)"),
]
